Each item that follows carries a reported growth.
- Tested on: E. coli TESEC Mtb DapB
- ASSAY SUMMARY: growth (OD600 after 10 h); higher = more growth (less inhibition)
- CONDITION DETAILS: arabinose induction (level): Low; compound 0.1 mM; raw OD600 reference: median of DMSO wells 0.227, cell-free background 0.041
Counter-ions that a name gives are not always drawn.
// response body must contain only the number

CCN(CC)C(=O)Nc1ccc(OCC(O)CNC(C)(C)C)c(C(C)=O)c1 (centres undefined) [Celiprolol HCl]: 0.264
Nc1ccc(C(=O)O)c(O)c1: 0.263
Cc1cccc(C)c1OCC(C)N (centres undefined) [Mexiletine hydrochloride]: 0.288
CN[C@@H]1[C@H](O[C@H]2[C@H](O[C@H]3[C@H](O)[C@@H](O)[C@H](NC(=N)N)[C@@H](O)[C@@H]3NC(=N)N)O[C@@H](C)[C@]2(O)CO)O[C@@H](CO)[C@H](O)[C@H]1O [Dihydrostreptomycin sulfate]: 0.0483
CCOc1ccc2ccccc2c1C(=O)N[C@@H]1C(=O)N2[C@@H]1SC(C)(C)[C@@H]2C(=O)O [Nafcillin sodium salt monohydrate]: 0.22
CCCC(CCC)C(=O)O: 0.246
CC(C)OC(=O)CCC/C=C\C[C@@H]1[C@@H](CC[C@@H](O)CCc2ccccc2)[C@H](O)C[C@@H]1O: 0.0554
CCN(CC)CCOCCOC(=O)C1(c2ccccc2)CCCC1 [Carbetapentane citrate]: 0.199

Alright, here's another compound for you.
Entry COc1ccc(CC2c3cc(OC)c(OC)cc3CC[N+]2(C)CCC(=O)OCCCCCOC(=O)CC[N+]2(C)CCc3cc(OC)c(OC)cc3C2Cc2ccc(OC)c(OC)c2)cc1OC (centres undefined) [Atracurium besylate] — recorded growth = 0.218

====

- Tested on: E. coli TESEC Mtb DapB
- ASSAY SUMMARY: growth (OD600 after 10 h); higher = more growth (less inhibition)
- CONDITION DETAILS: arabinose induction (level): Low; compound 0.1 mM; raw OD600 reference: median of DMSO wells 0.227, cell-free background 0.041
Structures can show the parent of a compound that is named as a salt.
ATTRIBUTE MEASURED: growth

Worked set:
CO[C@H]1/C=C/O[C@@]2(C)Oc3c(C)c(O)c4c(O)c(c(/C=N/N5CCN(C)CC5)c(O)c4c3C2=O)NC(=O)/C(C)=C\C=C\[C@H](C)[C@H](O)[C@@H](C)[C@@H](O)[C@@H](C)[C@H](OC(C)=O)[C@@H]1C: 0.0504
N=C(N)NC(=O)Cc1c(Cl)cccc1Cl [Guanfacine hydrochloride]: 0.214
CC[N+](C)(C)Cc1ccccc1Br [Bretylium tosylate]: 0.241
CCOC(=O)C(C)(C)Oc1ccc(Cl)cc1 [Clofibrate]: 0.236
CN(C)CCN(Cc1cccs1)c1ccccn1 [Methapyrilene hydrochloride]: 0.193
CCN(CC)CCOC(=O)C(c1ccccc1)C1CCCCC1 (stereo unspecified) [Drofenine hydrochloride]: 0.179
COc1ccc(-c2cc(=O)c3c(O)cc(O[C@@H]4O[C@H](CO[C@@H]5O[C@@H](C)[C@H](O)[C@@H](O)[C@H]5O)[C@@H](O)[C@H](O)[C@H]4O)cc3o2)cc1O: 0.243
COc1cc([C@@H]2c3cc4c(cc3[C@@H](O[C@@H]3O[C@@H]5CO[C@@H](C)O[C@H]5[C@H](O)[C@H]3O)[C@H]3COC(=O)[C@H]23)OCO4)cc(OC)c1O [Etoposide]: 0.0846
C=C1/C(=C\C=C2/CCC[C@]3(C)[C@@H]([C@H](C)CCCC(C)C)CC[C@@H]23)C[C@@H](O)C[C@@H]1O: 0.226
CN(C)CCCSC(=N)N [Dimaprit dihydrochloride]: 0.199

Alright, here's another molecule for you.
Entry Nc1ccc(S(=O)(=O)Nc2ccccn2)cc1 — recorded growth = 0.215
